Molecular target: Phosphatidylinositol 4,5-bisphosphate 3-kinase catalytic subunit gamma isoform (Homo sapiens)
Sequence (P48736 whole entry, canonical isoform): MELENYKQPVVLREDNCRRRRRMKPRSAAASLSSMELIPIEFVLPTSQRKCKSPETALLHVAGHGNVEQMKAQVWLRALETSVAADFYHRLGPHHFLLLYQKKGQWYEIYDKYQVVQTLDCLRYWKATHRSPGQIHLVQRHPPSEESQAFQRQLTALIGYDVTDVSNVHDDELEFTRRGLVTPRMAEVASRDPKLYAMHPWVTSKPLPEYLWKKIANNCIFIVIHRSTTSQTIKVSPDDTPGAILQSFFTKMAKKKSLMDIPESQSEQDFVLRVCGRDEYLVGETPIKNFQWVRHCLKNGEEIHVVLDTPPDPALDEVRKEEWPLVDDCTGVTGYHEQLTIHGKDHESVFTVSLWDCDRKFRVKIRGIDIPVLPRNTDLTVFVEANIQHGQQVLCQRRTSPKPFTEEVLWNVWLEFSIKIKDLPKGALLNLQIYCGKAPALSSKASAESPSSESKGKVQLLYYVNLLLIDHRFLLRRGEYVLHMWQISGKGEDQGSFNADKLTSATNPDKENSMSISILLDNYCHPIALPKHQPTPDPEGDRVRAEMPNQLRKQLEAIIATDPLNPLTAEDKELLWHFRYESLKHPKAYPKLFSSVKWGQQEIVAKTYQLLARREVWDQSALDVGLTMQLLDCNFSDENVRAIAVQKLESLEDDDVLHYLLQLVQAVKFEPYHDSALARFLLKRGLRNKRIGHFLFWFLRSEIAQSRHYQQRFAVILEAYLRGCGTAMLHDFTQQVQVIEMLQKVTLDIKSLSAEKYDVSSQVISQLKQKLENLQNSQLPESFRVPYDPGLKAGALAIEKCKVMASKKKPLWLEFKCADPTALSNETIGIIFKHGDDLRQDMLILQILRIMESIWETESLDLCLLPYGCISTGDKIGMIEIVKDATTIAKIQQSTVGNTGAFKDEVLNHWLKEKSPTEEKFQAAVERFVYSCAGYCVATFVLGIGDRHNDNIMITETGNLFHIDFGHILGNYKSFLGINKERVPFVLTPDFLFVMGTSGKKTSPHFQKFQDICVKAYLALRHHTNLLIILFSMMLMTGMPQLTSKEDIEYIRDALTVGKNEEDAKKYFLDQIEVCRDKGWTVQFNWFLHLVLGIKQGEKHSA
Experiment: Inhibition of PI3Kgamma
test readout: IC50 (nM)
Just the number please, in nM, no unit attached.

Solved entries:
Input: Requested read-out: IC50. Entry: Oc1cccc(-c2nc(N3CCOCC3)c3ncn(C4CCN(Cc5cccnc5)CC4)c3n2)c1
Output: 583

Input: Requested read-out: IC50. Entry: OCc1cccc(-c2nc(N3CCOCC3)c3ncn(C4CCN(Cc5ccc(F)cc5)CC4)c3n2)c1
Output: 594

Input: Requested read-out: IC50. Entry: OCc1cccc(-c2nc(N3CCOCC3)c3ncn(C4CCNCC4)c3n2)c1
Output: 683

Input: Requested read-out: IC50. Entry: Oc1cccc(-c2nc(N3CCOCC3)c3ncn(C4CCN(Cc5ccccc5)CC4)c3n2)c1
Output: 10000

Input: Requested read-out: IC50. Entry: Oc1cncc(-c2nc(N3CCOCC3)c3nc[nH]c3n2)c1
Output: 47

More entries:
Input: Requested read-out: IC50. Entry: OCc1cccc(-c2nc(N3CCOCC3)c3ncn(C4CCN(Cc5ccc(-c6ccncc6)cc5)CC4)c3n2)c1
Output: 223

Input: Requested read-out: IC50. Entry: CC(=O)N1CCC(n2cnc3c(N4CCOCC4)nc(-c4cccc(CO)c4)nc32)CC1
Output: 1380
